Test system: CCRIS mutagenicity, Ames/micronucleus/aberration tests
Assay: CCRIS mutagenicity studies
Settings: Test System: AMES SALMONELLA TYPHIMURIUM; Strain/Indicator: TA98; Metabolic Activation: NONE; Method: STANDARD PLATE
Source text: The CCRIS database contains chemical records with carcinogenicity, mutagenicity, tumor promotion, and tumor inhibition test results. It was developed by the National Cancer Institute (NCI). Data are derived from studies cited in primary journals, current awareness tools, NCI reports, and other sources. Test results have been reviewed by experts in carcinogenesis and mutagenesis. CCRIS provides historical information from the years 1985 - 2011. It is no longer updated. […]
Active and inactive are the calls of the source. No rule for the calls is given here.
observed-property: mutagenic call

Query string: Missing value: mutagenic call, CCRIS mutagenicity, Ames/micronucleus/aberration tests, entry C=CCc1ccc(O)c(OC)c1 . Fill in?
Result string: inactive; negative

Query string: Missing value: mutagenic call, CCRIS mutagenicity, Ames/micronucleus/aberration tests, entry CC(=O)Nc1cc2c(cc1[N+](=O)[O-])[nH]c1ccccc12 . Fill in?
Result string: active; positive

Query string: Missing value: mutagenic call, CCRIS mutagenicity, Ames/micronucleus/aberration tests, entry CN1C(=O)CC(=O)N(c2ccccc2)c2cc(Cl)ccc21 . Fill in?
Result string: inactive; negative

Query string: Missing value: mutagenic call, CCRIS mutagenicity, Ames/micronucleus/aberration tests, entry O=[N+]([O-])c1ccc2c(c1)nc(/C=N/OCc1ccccc1[N+](=O)[O-])n2Cc1ccc(Cl)cc1Cl . Fill in?
Result string: active; positive

Query string: Missing value: mutagenic call, CCRIS mutagenicity, Ames/micronucleus/aberration tests, entry O=C(CCl)CCl . Fill in?
Result string: inactive; negative

Next molecule, please.
Query string: Missing value: mutagenic call, CCRIS mutagenicity, Ames/micronucleus/aberration tests, entry CN(C)CCN(Cc1cccs1)c1ccccn1 . Fill in?
Result string: inactive; negative
